Tested on: NCI-H23
Test: Growth inhibition of human NCI-H23 cells after 48 hrs by SRB assay
Format: functional
Settings: NCI-H23, 48 h
reported-property: GI50 (µM)

item_smiles=O=C(Nc1ccccc1OC(F)(F)F)Nc1n[nH]c2ccccc12 result_number=50
item_smiles=CCCCOc1ccc(NC(=O)n2nc(N)c3ccccc32)cc1 result_number=19.4
item_smiles=COc1ccc(NC(=O)n2nc(N)c3ccccc32)cc1OC result_number=83.5

---

System: PC-3
Assay: Growth inhibition of human PC3 cells after 48 hrs by SRB assay
Format: functional
Conditions: PC-3, 48 h
reported-property: GI50 (µM)

item_smiles=O=C(Nc1ccc(Cc2ccccc2)cc1)Nc1nn(C(=O)Nc2ccc(Cc3ccccc3)cc2)c2ccccc12 target_or_system=PC-3 reported_property=GI50 uom=µM inequality_sign=> result_number=100
item_smiles=CCCCOc1ccc(NC(=O)n2nc(N)c3ccccc32)cc1 target_or_system=PC-3 reported_property=GI50 uom=µM inequality_sign== result_number=14.9
item_smiles=COc1ccc(NC(=O)n2nc(N)c3ccccc32)cc1OC target_or_system=PC-3 reported_property=GI50 uom=µM inequality_sign== result_number=35.5
item_smiles=O=C(Nc1cc(C(F)(F)F)ccc1F)Nc1n[nH]c2ccccc12 target_or_system=PC-3 reported_property=GI50 uom=µM inequality_sign=> result_number=100
item_smiles=COc1ccccc1NC(=O)n1nc(N)c2ccccc21 target_or_system=PC-3 reported_property=GI50 uom=µM inequality_sign== result_number=83.1
item_smiles=COc1ccc(NC(=O)Nc2n[nH]c3ccccc23)cc1 target_or_system=PC-3 reported_property=GI50 uom=µM inequality_sign=> result_number=100
item_smiles=O=C(Nc1ccccc1OC(F)(F)F)Nc1n[nH]c2ccccc12 target_or_system=PC-3 reported_property=GI50 uom=µM inequality_sign== result_number=31.4
item_smiles=Nc1nn(C(=O)Nc2c(F)cccc2F)c2ccccc12 target_or_system=PC-3 reported_property=GI50 uom=µM inequality_sign=< result_number=100
item_smiles=Nc1nn(C(=O)Nc2ccc(Cc3ccccc3)cc2)c2ccccc12 target_or_system=PC-3 reported_property=GI50 uom=µM inequality_sign== result_number=13.5

---

Test system: 786-0
Assay: Growth inhibition of human 786-0 cells after 48 hrs by SRB assay
Type: functional
Details: 786-0, 48 h
Measured GI50, listed per entry.
reported-property: GI50

item_smiles=Nc1nn(C(=O)Nc2c(F)cccc2F)c2ccccc12 reported_property=GI50 result="< 100 µM"
item_smiles=COc1ccc(NC(=O)n2nc(N)c3ccccc32)cc1OC reported_property=GI50 result="> 100 µM"
item_smiles=CCCCOc1ccc(NC(=O)n2nc(N)c3ccccc32)cc1 reported_property=GI50 result="21 µM"

---

Test system: DU-145
Assay: Growth inhibition of human DU145 cells after 48 hrs by SRB assay
Format: functional
Details: DU-145, 48 h
Consider the cut-off 60 µM. If the recorded GI50 is strictly smaller, the label is Met; if not, the label is Not met.

item_smiles=Nc1nn(C(=O)Nc2c(F)cccc2F)c2ccccc12 target_or_system=DU-145 qualitative_label="Not met"
item_smiles=COc1ccccc1NC(=O)n1nc(N)c2ccccc21 target_or_system=DU-145 qualitative_label="Not met"
item_smiles=COc1ccc(NC(=O)Nc2n[nH]c3ccccc23)cc1 target_or_system=DU-145 qualitative_label="Not met"
item_smiles=O=C(Nc1ccccc1OC(F)(F)F)Nc1n[nH]c2ccccc12 target_or_system=DU-145 qualitative_label=Met
item_smiles=CCCCOc1ccc(NC(=O)n2nc(N)c3ccccc32)cc1 target_or_system=DU-145 qualitative_label=Met
item_smiles=Nc1nn(C(=O)Nc2ccc(Cc3ccccc3)cc2)c2ccccc12 target_or_system=DU-145 qualitative_label=Met
item_smiles=O=C(Nc1ccc(Cc2ccccc2)cc1)Nc1nn(C(=O)Nc2ccc(Cc3ccccc3)cc2)c2ccccc12 target_or_system=DU-145 qualitative_label="Not met"
item_smiles=COc1ccc(NC(=O)n2nc(N)c3ccccc32)cc1OC target_or_system=DU-145 qualitative_label="Not met"
item_smiles=O=C(Nc1cc(C(F)(F)F)ccc1F)Nc1n[nH]c2ccccc12 target_or_system=DU-145 qualitative_label="Not met"

---

Tested on: ACHN
Assay: Growth inhibition of human ACHN cells after 48 hrs by SRB assay
Type: functional
reported-property: GI50 (µM)

item_smiles=O=C(Nc1ccc(Cc2ccccc2)cc1)Nc1nn(C(=O)Nc2ccc(Cc3ccccc3)cc2)c2ccccc12 reported_property=GI50 uom=µM inequality_sign=> result_number=100
item_smiles=O=C(Nc1cc(C(F)(F)F)ccc1F)Nc1n[nH]c2ccccc12 reported_property=GI50 uom=µM inequality_sign=> result_number=100
item_smiles=Nc1nn(C(=O)Nc2c(F)cccc2F)c2ccccc12 reported_property=GI50 uom=µM inequality_sign== result_number=50.1
item_smiles=COc1ccccc1NC(=O)n1nc(N)c2ccccc21 reported_property=GI50 uom=µM inequality_sign=> result_number=100
item_smiles=CCCCOc1ccc(NC(=O)n2nc(N)c3ccccc32)cc1 reported_property=GI50 uom=µM inequality_sign== result_number=22.8
item_smiles=COc1ccc(NC(=O)n2nc(N)c3ccccc32)cc1OC reported_property=GI50 uom=µM inequality_sign== result_number=58.3
item_smiles=O=C(Nc1ccccc1OC(F)(F)F)Nc1n[nH]c2ccccc12 reported_property=GI50 uom=µM inequality_sign== result_number=31.1
item_smiles=Nc1nn(C(=O)Nc2ccc(Cc3ccccc3)cc2)c2ccccc12 reported_property=GI50 uom=µM inequality_sign== result_number=1.69
item_smiles=COc1ccc(NC(=O)Nc2n[nH]c3ccccc23)cc1 reported_property=GI50 uom=µM inequality_sign=> result_number=100

---

Measured GI50, listed per entry.
Test system: MCF7
Test: Growth inhibition of human MCF7 cells after 48 hrs by SRB assay
Assay type: functional
Conditions: MCF7, 48 h
reported-property: GI50 (µM)

item_smiles=O=C(Nc1cc(C(F)(F)F)ccc1F)Nc1n[nH]c2ccccc12 uom=µM inequality_sign== result_number=18.2
item_smiles=CCCCOc1ccc(NC(=O)n2nc(N)c3ccccc32)cc1 uom=µM inequality_sign== result_number=14.5
item_smiles=COc1ccc(NC(=O)Nc2n[nH]c3ccccc23)cc1 uom=µM inequality_sign=> result_number=100
item_smiles=O=C(Nc1ccc(Cc2ccccc2)cc1)Nc1nn(C(=O)Nc2ccc(Cc3ccccc3)cc2)c2ccccc12 uom=µM inequality_sign=> result_number=100
item_smiles=Nc1nn(C(=O)Nc2ccc(Cc3ccccc3)cc2)c2ccccc12 uom=µM inequality_sign== result_number=0.555
item_smiles=COc1ccccc1NC(=O)n1nc(N)c2ccccc21 uom=µM inequality_sign== result_number=0.269
item_smiles=O=C(Nc1ccccc1OC(F)(F)F)Nc1n[nH]c2ccccc12 uom=µM inequality_sign== result_number=1.75
item_smiles=COc1ccc(NC(=O)n2nc(N)c3ccccc32)cc1OC uom=µM inequality_sign== result_number=29.5
item_smiles=Nc1nn(C(=O)Nc2c(F)cccc2F)c2ccccc12 uom=µM inequality_sign== result_number=60

---

Measured GI50, listed per entry.
Test system: HOP-62
Test: Growth inhibition of human HOP62 cells after 48 hrs by SRB assay
Format: functional
Conditions: HOP-62, 48 h
reported-property: GI50 (µM)

item_smiles=CCCCOc1ccc(NC(=O)n2nc(N)c3ccccc32)cc1 target_or_system=HOP-62 inequality_sign== result_number=20.8
item_smiles=Nc1nn(C(=O)Nc2ccc(Cc3ccccc3)cc2)c2ccccc12 target_or_system=HOP-62 inequality_sign== result_number=13.7
item_smiles=O=C(Nc1ccccc1OC(F)(F)F)Nc1n[nH]c2ccccc12 target_or_system=HOP-62 inequality_sign== result_number=19.6
item_smiles=O=C(Nc1ccc(Cc2ccccc2)cc1)Nc1nn(C(=O)Nc2ccc(Cc3ccccc3)cc2)c2ccccc12 target_or_system=HOP-62 inequality_sign== result_number=59.7
item_smiles=COc1ccc(NC(=O)Nc2n[nH]c3ccccc23)cc1 target_or_system=HOP-62 inequality_sign=> result_number=100
item_smiles=O=C(Nc1cc(C(F)(F)F)ccc1F)Nc1n[nH]c2ccccc12 target_or_system=HOP-62 inequality_sign=> result_number=100
item_smiles=COc1ccc(NC(=O)n2nc(N)c3ccccc32)cc1OC target_or_system=HOP-62 inequality_sign== result_number=75.2
item_smiles=Nc1nn(C(=O)Nc2c(F)cccc2F)c2ccccc12 target_or_system=HOP-62 inequality_sign== result_number=51
item_smiles=COc1ccccc1NC(=O)n1nc(N)c2ccccc21 target_or_system=HOP-62 inequality_sign== result_number=100

---

System: TK-10
Experiment: Growth inhibition of human TK10 cells after 48 hrs by SRB assay
Format: functional
Conditions: TK-10, 48 h
Measured GI50, listed per entry.
reported-property: GI50 (µM)

item_smiles=Nc1nn(C(=O)Nc2c(F)cccc2F)c2ccccc12 target_or_system=TK-10 uom=µM inequality_sign=< result_number=100
item_smiles=COc1ccccc1NC(=O)n1nc(N)c2ccccc21 target_or_system=TK-10 uom=µM inequality_sign== result_number=74.3
item_smiles=O=C(Nc1ccc(Cc2ccccc2)cc1)Nc1nn(C(=O)Nc2ccc(Cc3ccccc3)cc2)c2ccccc12 target_or_system=TK-10 uom=µM inequality_sign=> result_number=100
item_smiles=O=C(Nc1cc(C(F)(F)F)ccc1F)Nc1n[nH]c2ccccc12 target_or_system=TK-10 uom=µM inequality_sign=> result_number=100
item_smiles=COc1ccc(NC(=O)n2nc(N)c3ccccc32)cc1OC target_or_system=TK-10 uom=µM inequality_sign== result_number=92.4
item_smiles=COc1ccc(NC(=O)Nc2n[nH]c3ccccc23)cc1 target_or_system=TK-10 uom=µM inequality_sign=> result_number=100
item_smiles=Nc1nn(C(=O)Nc2ccc(Cc3ccccc3)cc2)c2ccccc12 target_or_system=TK-10 uom=µM inequality_sign== result_number=27.2
item_smiles=CCCCOc1ccc(NC(=O)n2nc(N)c3ccccc32)cc1 target_or_system=TK-10 uom=µM inequality_sign== result_number=24.2
item_smiles=O=C(Nc1ccccc1OC(F)(F)F)Nc1n[nH]c2ccccc12 target_or_system=TK-10 uom=µM inequality_sign== result_number=37.9
